test system: Saccharomyces cerevisiae; assay: protein stability index of tFT-peptide fusion (C-terminal peptide) (PSI (0-1 scale)); higher = more stable (slower turnover); settings: genetic background: wild type; temperature: 30 C
measured.endpoint: protein stability index
Answer with a number only.

Which protein stability index value belongs to FFCCVLFSIVVY ?
0.104

Item: RGCFVLRKTHLL
0.152

Item: VVVYWGSLKRVC
0.117

Item: EFFILYFFLKVL
0.116

Item: PFFSSLKYRRDH
0.142

Item: DRTRLFLLLIIA
0.165

Item: GRGVRLRVRLLL
0.217

Item: VFSCFLFLVVLV
0.169

Item: SVFVVVVLVFWY
0.22

Item: GNRDLVNTSVEG
0.633

Item: RPCRPLIAAFVF
0.421

Item: HPPPTLVPPHPR
0.681

Item: VFLRCRSLSMRV
0.389

Item: KRRKERIKIQQI
0.168

Item: RRIKNRRLKQVT
0.283

Item: VFMTLHCITIYK
0.348

Item: GCFVDRVYVVVV
0.387

Item: PPTHDSPVWSPS
0.687

Item: GFIRVRHLRSLC
0.138

---

For each record, write down the corresponding protein stability index.
tested on: Saccharomyces cerevisiae; assay: protein stability index of tFT-peptide fusion (C-terminal peptide) (PSI (0-1 scale)); higher = more stable (slower turnover); conditions: genetic background: das1 deletion; temperature: 30 C

Which protein stability index value belongs to EEFLTLLGRRSI [FOL2 C-terminal 12 aa] ?
0.708

Item: ELLRLHNCHLPV [RMA1 C-terminal 12 aa]
0.713

Item: HGNVFHIESICG [YLL047W C-terminal 12 aa]
0.655

Item: IVALILNTRGSE [VMA11 C-terminal 12 aa]
0.683

Item: HLSGSTIDTTVV [DSE1 C-terminal 12 aa]
0.662

Item: QSLKISKKRRRK [ZIP1 C-terminal 12 aa]
0.734

---

For each record, write down the corresponding protein stability index.
tested on: Saccharomyces cerevisiae; experiment: protein stability index of tFT-peptide fusion (C-terminal peptide) (PSI (0-1 scale)); higher = more stable (slower turnover); details: genetic background: das1 deletion; temperature: 37 C
Answer with a number only.

Which protein stability index value belongs to CLGLFPSLLRLS ?
0.731

Item: RVTEYHTKYKIV
0.728

Item: RRIKNRRLKQVT
0.722

Item: ILAVMFEIYAIL
0.533

Item: LFPLLCLLLPSL
0.638

Item: RLICFFSMYLRF
0.395

Item: SVFGVRARFGSV
0.781

Item: LAGSSSIVVVFG
0.527

Item: TIYGYEVTRKIG
0.732

Item: FFGRWWWSFLLA
0.663

Item: GFSFFFIFWFFF
0.503

Item: CLLWVVWSLLWV
0.451

Item: FPSLLFALFLFI
0.527

Item: VRWALLGVVVEG
0.474

Item: APPHPPPATFLS
0.721

Item: CVMWFLLSAYYL
0.434

Item: LALTRAAITHFF
0.743

Item: HHRLRQGLRRIN
0.702

Item: FPSCYIWEVEVM
0.484

---

test system: Saccharomyces cerevisiae; test: protein stability index of tFT-peptide fusion (C-terminal peptide) (PSI (0-1 scale)); higher = more stable (slower turnover); details: genetic background: wild type; temperature: 30 C
For each record, write down the corresponding protein stability index.
Answer with a number only.

Which protein stability index value belongs to LNRKEESDSFVA [CHS3 C-terminal 12 aa] ?
0.679

Item: FIYKRNKKFILN [YPQ1 C-terminal 12 aa]
0.21

Item: IEVGADSYAEEF [TUB3 C-terminal 12 aa]
0.671

Item: ALFKAAGGKIKK [YLF2 C-terminal 12 aa]
0.66

Item: EDRQAFFDSLKE [YGK1 C-terminal 12 aa]
0.651

Item: ILEAWEKVDDSL [SNX4 C-terminal 12 aa]
0.734

Item: TVSSVESVLAHL [AHP1 C-terminal 12 aa]
0.749

Item: VYALSIKRSKLT [EPT1 C-terminal 12 aa]
0.208

Item: KGKLITKVNNEE [YML131W C-terminal 12 aa]
0.628

Item: QRASSRPKERRK [MSB4 C-terminal 12 aa]
0.713

Item: SVFLLNITYLLD [YOR314W C-terminal 12 aa]
0.268

Item: NRVVLVDHNSSS [IRS4 C-terminal 12 aa]
0.727

Item: AFIFGNYKDILT [RGA1 C-terminal 12 aa]
0.72

Item: IPLTEFDLSDSK [YMR253C C-terminal 12 aa]
0.734

Item: AYFALREKKFLL [YIL012W C-terminal 12 aa]
0.641

Item: FIREFVLKNYSK [SNO2 C-terminal 12 aa]
0.71

Item: IASQNSLGWNEV [MSB2 C-terminal 12 aa]
0.693

Item: KISLLSHAQCYK [YIR016W C-terminal 12 aa]
0.651

Item: GLSIDTRSAYFV [YPL251W C-terminal 12 aa]
0.68

Item: RSNEEMYSWSRN [SPO74 C-terminal 12 aa]
0.692

Item: FKVDDNVDFPSA [RPN2 C-terminal 12 aa]
0.744

Item: IYKCEDERIDYF [KOG1 C-terminal 12 aa]
0.726

Item: TRGPRRKLPTRV [BSP1 C-terminal 12 aa]
0.672

Item: LNEYSKDPPGNN [RAD18 C-terminal 12 aa]
0.707

Item: EVDELPEGYDRS [TAH1 C-terminal 12 aa]
0.676

Item: EALGKGGRGKRY [LSO1 C-terminal 12 aa]
0.678

Item: DSLENKIDSMTK [INH1 C-terminal 12 aa]
0.714

Item: ITSQDILASTDY [YHL009W-B C-terminal 12 aa]
0.711

Item: EKLPSKFTFKRE [ARN1 C-terminal 12 aa]
0.682

Item: FDVELVDVKSAA [FPR2 C-terminal 12 aa]
0.687

Item: SFSYLWRNFGFI [PDR18 C-terminal 12 aa]
0.716

Item: GNTENGTLKKKH [BSC5 C-terminal 12 aa]
0.667

Item: HFLQKFFKLFDN [YMR052C-A C-terminal 12 aa]
0.687

Item: TCLTGEVIFPPR [NPC2 C-terminal 12 aa]
0.72

Item: RLSMLRPPSSSS [RSC2 C-terminal 12 aa]
0.706

Item: QRTRRRMSLYKL [TOS3 C-terminal 12 aa]
0.853

Item: EVTAKTSLVSPK [ROX1 C-terminal 12 aa]
0.676

Item: SRLKKEFEAAAL [IDP2 C-terminal 12 aa]
0.678

Item: VKKLLEIRSKSS [GTT2 C-terminal 12 aa]
0.369

Item: KLRREDEIIVYA [REC8 C-terminal 12 aa]
0.644

Item: VKKLVTDMLAKI [CFT2 C-terminal 12 aa]
0.669

Item: HDDKPWYKAMLE [GAL2 C-terminal 12 aa]
0.733

Item: ITFIASLMTLNK [SAC6 C-terminal 12 aa]
0.679

Item: ETMGARLKIDGK [YJR149W C-terminal 12 aa]
0.689

Item: HGNVFHIESICG [YLL047W C-terminal 12 aa]
0.737

Item: VHCGCRGCASTD [BUD31 C-terminal 12 aa]
0.673

Item: KQLDLKHMLEMH [MRPL44 C-terminal 12 aa]
0.69

Item: YGVPDAELKIVG [DGA1 C-terminal 12 aa]
0.672

Item: RIYHVYGRFLIH [NCA2 C-terminal 12 aa]
0.404
